Values compiled from PubChem BioAssay (NCI).

System: CAKI-1 renal
Assay: NCI tumour cell line growth inhibition, 48 h
Assay readout: TGI

See these solved cases before continuing.
{"Compound": "CC(C)(C)N1C(=O)c2ccccc2C1(O)C(F)(F)F (stereo not given)", "TGI": "> 100 µM"}
{"Compound": "Oc1cccc(-c2ccc3c4c2O[C@H]2c5[nH]c6ccccc6c5C[C@@]5(O)[C@@H](C3)N(CC3CC3)CC[C@]425)c1", "TGI": "3.41 µM"}
{"Compound": "Cc1cc2nc3c(C#N)c(-c4ccccc4)/c(=C\\Nc4ccc(Cl)cc4)c(=O)n3c2cc1C", "TGI": "> 100 µM"}
{"Compound": "O=C1c2sc(-c3ccc(F)cc3)cc2-n2cccc21", "TGI": "34.5 µM"}
{"Compound": "O=C1/C(=C\\c2ccc(F)cc2)CN(C(=O)c2ccc([N+](=O)[O-])cc2)C/C1=C\\c1ccc(F)cc1", "TGI": "> 100 µM"}
{"Compound": "CCSC1=N/C(=C\\c2ccco2)C(NN)=N1", "TGI": "> 50 µM"}

Please give TGI, item by item, for the list that follows.
1. Nc1ccc(Oc2ccc(C3(c4ccc(Oc5ccc(N)cc5)cc4)C4CC5C6CC7CC5C3C(C7)C6C4)cc2)cc1
2. COc1cccc(Cn2c(-c3nonc3N)nc3ccccc32)c1
3. CC(C)(C)OC(=O)[C@@H]1CCC(=S)N1Cc1ccccc1
4. COc1ccc(C2=Nn3c(nc4sc(C)c(C)c4c3=O)SC2)cc1

result:
> 100 µM
> 100 µM
> 100 µM
> 100 µM

---

System: RPMI-8226 leukemia
Experiment: NCI tumour cell line growth inhibition, 48 h
Assay readout: TGI

Answer for every listed entry: what is its TGI? The entries follow.
1. CNC(=O)c1c(NC(=O)c2ccc(C(F)(F)F)cc2)sc2c1CCC(=O)C2
2. CCOC(CCCNCCCn1c2c(c3cc(OC)c(OC)cc3c1=O)C(=O)c1cc3c(cc1-2)OCO3)OCC
3. CCSC1=N/C(=C\c2ccco2)C(NN)=N1
4. Cc1nnc2sc(Cl)nn12
5. CNC1C(O)C(OC2C(N)CC(N)C(OC3OC(CN)=CCC3N)C2O)OCC1(C)O (stereo unspecified)

result:
1. 0.884 µM
2. 8.45 µM
3. > 50 µM
4. > 100 µM
5. > 100 µM

---

System: KM12 colon
Experiment: NCI tumour cell line growth inhibition, 48 h
Assay readout: TGI

Recorded results for 4 molecules are shown here.
{"Molecule": "CNC(=O)c1c(NC(=O)c2ccc(C(F)(F)F)cc2)sc2c1CCC(=O)C2", "Assay readout": "TGI", "Result": "2.46 µM"}
{"Molecule": "COC(=O)C(=O)C(C(=O)C1=NS(=O)(=O)c2cc(S(N)(=O)=O)c(Cl)cc2N1)c1nc2ccc(C(=O)c3ccccc3)cc2[nH]c1=O (stereo not given)", "Assay readout": "TGI", "Result": "> 100 µM"}
{"Molecule": "CC(C)CCSC1=CC(=O)c2ccccc2C1=O", "Assay readout": "TGI", "Result": "21.5 µM"}
{"Molecule": "C=C1[C@H](OC(=O)C(C)C)[C@@H](OC(C)=O)[C@@H](OC(C)=O)C(C)(C)[C@@H]2O[C@H]2[C@@H](C)C(=O)[C@@]2(OC(C)=O)C[C@@](C)(OC(C)=O)[C@H](OC(C)=O)[C@@H]2[C@H]1OC(C)=O", "Assay readout": "TGI", "Result": "> 100 µM"}

Fill in TGI for each of the 7 molecules listed.
1. CC1=C(C#N)C23C(=O)c4ccccc4C(O)=C2C(=O)C=CC3(O)N1 (stereo not given)
2. CCSC(SCC)c1cc2c(cc1Br)OCO2
3. CCOC(=O)C(NC(=O)C(CCCCNP(=O)(OCC)OCC)NC(=O)C(C)NC(C)=O)C(C)C (stereo not given)
4. CCCc1cc(=O)oc2c(C=O)c(O)cc(O)c12
5. COCc1c(CO)cnc(C)c1OC1OC(CO)C(O)C(O)C1O (stereo not given)
6. CCn1ncc2c1nc(-c1ccccc1)c[n+]2[O-]
7. CCN1C(=O)N(CC)C2C1NN=c1s/c(=C\c3ccccc3F)c(=O)n12 (stereo not given)

result:
["38.6 µM", "> 100 µM", "> 100 µM", "61.2 µM", "> 100 µM", "> 100 µM", "> 48.9 µM"]

# per-item lookup of TGI; items listed below
1. C#CCSc1n[nH]c(-c2ccco2)n1
2. CC(N)C(=O)OCN1C(=O)C2C3C=CC(C2C1=O)C1C2C(=O)N(COC(=O)C(C)N)C(=O)C2C31 (stereo not given)
3. O=Nc1c(-c2c(O)[nH]c3ccccc23)[nH]c2ccccc12
4. Cn1cc(-c2csc(-c3cn(C)c4ccc(Br)cc34)n2)c2cnccc21
5. Cc1nn2c(=O)c([N+](=O)[O-])c(/C=C/c3ccco3)nc2s1

result:
> 100 µM
41.6 µM
> 38.7 µM
3.69 µM
> 100 µM

Batch request: TGI for each of the following molecules.
1. CC(C)OC(=O)Nc1cccc(Cl)c1
2. Cc1nnc2sc(Cl)nn12
3. Cc1ccc(S(=O)(=O)N2c3ccccc3[C@H]3CCc4c([nH]c5ccccc45)[C@H]32)cc1
4. COC(=O)C(Cc1ccccc1)NC(=O)C(CCC(=O)OCc1ccccc1)NC(=O)OC(C)(C)C (stereo not given)

result:
1: > 100 µM; 2: 28.6 µM; 3: > 100 µM; 4: > 100 µM
